# System: IGROV-1
# test_summary: SRB colorimetric assay of cell growth and viability, IGROV-1
# Assay type: cell-based, human
# condition_notes: 48 hours exposure, SRB
Where a SMILES comes first, the peptide text is derived from it. Bridges are numbered along the chain shown (N, C = ends). [ ]: non-standard residue; d: D form. The star is where a group is joined. d(aIle) = CC[C@H](C)[C@@H](N)C(=O)O; d(aThr) = C[C@@H](O)[C@@H](N)C(=O)O; Hexanoyl(5-Me) = CC(C)CCCC(=O)*; Orn = NCCC[C@H](N)C(=O)O; Dha = C=C(N)C(=O)O
Strictly below 200 nM in GI50: true (1). Otherwise: false (0).

[2H]C([2H])([2H])C([2H])(C([2H])([2H])[2H])[C@]([2H])(NC(=O)[C@@H](NC(=O)[C@H](NC(=O)CCCC(C)C)C(C)C)[C@@H](C)O)C(=O)N[C@@H](C(=O)N1CCC[C@@H]1C(=O)N[C@@H](CCCN)C(=O)N[C@@H](C(=O)N[C@H]1C(=O)N[C@H]([C@@H](C)CC)C(=O)N[C@H](C(C)C)C(=O)N[C@@H](Cc2ccccc2)C(=O)N/C(=C\C)C(=O)N[C@@H](C(C)C)C(=O)O[C@@H]1C)[C@@H](C)CC)C(C)C [Compound 100, [L-Val-d8^11]-KF] = false (0)
C/C=C1\NC(=O)[C@H](Cc2ccc(I)cc2)NC(=O)[C@@H](C(C)C)NC(=O)[C@@H]([C@@H](C)CC)NC(=O)[C@H](NC(=O)[C@H](NC(=O)[C@H](CCCN)NC(=O)[C@H]2CCCN2C(=O)[C@H](NC(=O)[C@@H](NC(=O)[C@@H](NC(=O)[C@H](NC(=O)CC[C@@H](C)CC)C(C)C)[C@@H](C)O)C(C)C)C(C)C)[C@@H](C)CC)[C@@H](C)OC(=O)[C@H](C(C)C)NC1=O [Compound 72, [Phe(4-I)^3, (4S)-MeHex^14]-KF] = true (1)
C/C=C1\NC(=O)[C@H](Cc2ccccc2)NC(=O)[C@@H](C(C)C)NC(=O)[C@@H]([C@@H](C)CC)NC(=O)[C@H](NC(=O)[C@H](NC(=O)[C@H](CCCC[N+](C)(C)C)NC(=O)[C@H]2CCCN2C(=O)[C@H](NC(=O)[C@@H](NC(=O)[C@@H](NC(=O)[C@H](NC(=O)CC[C@@H](C)CC)C(C)C)[C@@H](C)O)C(C)C)C(C)C)[C@@H](C)CC)[C@@H](C)OC(=O)[C@H](C(C)C)NC1=O [Compound 93, [N^ε(Me)3-Lys^8, (4S)-MeHex^14]-KF] = false (0)
C/C=C1\NC(=O)[C@@H](Cc2ccccc2)NC(=O)[C@H](C(C)C)NC(=O)[C@H]([C@H](C)CC)NC(=O)[C@@H](NC(=O)[C@@H](NC(=O)[C@@H](CCCN)NC(=O)[C@@H]2CCCN2C(=O)[C@@H](NC(=O)[C@H](NC(=O)[C@H](NC(=O)[C@@H](NC(=O)CCCC(C)C)C(C)C)[C@H](C)O)C(C)C)C(C)C)[C@H](C)CC)[C@H](C)OC(=O)[C@@H](C(C)C)NC1=O = false (0)

Would you kindly verify if GI50 of C=C1NC(=O)[C@H](Cc2ccccc2)NC(=O)[C@@H](C(C)C)NC(=O)[C@@H]([C@@H](C)CC)NC(=O)[C@H](NC(=O)[C@H](NC(=O)[C@H](CCCN)NC(=O)[C@H]2CCCN2C(=O)[C@H](NC(=O)[C@@H](NC(=O)[C@@H](NC(=O)[C@H](NC(=O)CCCC(C)C)C(C)C)[C@@H](C)O)C(C)C)C(C)C)[C@@H](C)CC)[C@@H](C)OC(=O)[C@H](C(C)C)NC1=O [Compound 67, [Dha^2]-KF] ({Hexanoyl(5-Me)}-[dV]TV[dV][dP][Orn][d(aIle)][d(aThr)][d(aIle)][dV]F[Dha]V; ester 8-C) is strictly less than 200 nM?
false (0)

Please state whether GI50 is below 200 nM for C/C=C1\NC(=O)[C@H](Cc2c(F)c(F)c(F)c(F)c2F)NC(=O)[C@@H](C(C)C)NC(=O)[C@@H]([C@@H](C)CC)NC(=O)[C@H](NC(=O)[C@H](NC(=O)[C@H](CCCN)NC(=O)[C@H]2CCCN2C(=O)[C@H](NC(=O)[C@@H](NC(=O)[C@@H](NC(=O)[C@H](NC(=O)CC[C@@H](C)CC)C(C)C)[C@@H](C)O)C(C)C)C(C)C)[C@@H](C)CC)[C@@H](C)OC(=O)[C@H](C(C)C)NC1=O [Compound 71, [Phe(F5)^3, (4S)-MeHex^14]-KF]
false (0)
